Every entry's value here was drawn from paper PMC7031696.

System: 3D7-MR4 trophozoite parasite-infected RBCs
test_name: Metabolomic profiling (hydrophilic metabolite changes, UHPLC-MS)
Assay type: cell-based, Plasmodium falciparum
run_parameters: metabolite maleic acid
Note to self: class labels come from recorded Log2(fold change) maleic acid, ranges listed here: range 1: < -0.3; range 2: ≥ -0.3 and < -0.006; range 3: ≥ -0.006

compound	group_label
FC(F)(F)c1cccc(Nc2nc3ccccc3nc2Nc2cccc(C(F)(F)F)c2)c1	range 3
O=C(Nc1ccsc1C(=O)NC1CCCCC1)c1ccc(F)cc1	range 1
Cc1cc(Nc2ccc(S(F)(F)(F)(F)F)cc2)n2nc(C(C)(F)F)nc2n1 [DSM265, reference compound]	range 3
CC(C)(C)c1ccc2c(c1)CN(Cc1ccc(Cl)cc1)CO2	range 3
O=C1C(O)=C([C@H]2CC[C@H](c3ccc(Cl)cc3)CC2)C(=O)c2ccccc21 [Atovaquone, reference compound]	range 2
Cl.c1ccc2c(NCCCCCCNc3c4c(nc5ccccc35)CCCC4)c3c(nc2c1)CCCC3	range 1
Cc1cc(Nc2ccc(OCc3ccccc3)cc2)nc2cc(O)ccc12	range 1
CCCOCc1cc(CN2CCN(c3cccc(Cl)c3)CC2)c(O)c2ncccc12	range 3
COc1cncc(-c2cncc(N3CCN(c4ccncc4)CC3)n2)c1	range 2
C[C@H]1Cc2c([nH]c3cc(Cl)c(F)cc23)[C@@]2(N1)C(=O)Nc1ccc(Cl)cc12 [KAE609, reference compound]	range 3
CCN(CC)CCn1c(=N)n(CC(O)c2ccc(Cl)c(Cl)c2)c2ccccc21.Cl (centres unmarked)	range 3
CN(C)Cc1ccc(-c2cc3c(-c4ccc(CN(C)C)cc4)ccnc3[nH]2)cc1.O=C(O)C(F)(F)F	range 1
CCCN(CCC)CC(O)COc1ccccc1C(=O)Nc1ccccc1 (centres unmarked)	range 3
Cc1ccc(Oc2ncccc2C(=O)Nc2cccc3cccnc23)c(C)c1	range 1
COCCNCC(O)Cn1c2ccc(Cl)cc2c2cc(Cl)ccc21 (centres unmarked)	range 3
CC(C)C[C@@H](/C=C/S(C)(=O)=O)NC(=O)[C@H](CC(C)C)NC(=O)[C@H](Cc1c[nH]c2ccccc12)NC(=O)CN1CCOCC1 [WLL-vs, reference compound]	range 2
OC(c1cc(C(F)(F)F)nc2c(C(F)(F)F)cccc12)C1CCCCN1 (centres unmarked) [Mefloquine, reference compound]	range 2
COc1cc(-c2nc(-c3ccccc3)c(-c3ccccc3)[nH]2)ccc1OCCN(C)C	range 2
FC(F)(F)c1ccc(Nc2cc3[nH]c(-c4cccc(C(F)(F)F)c4)nc3cn2)nc1	range 2
O=C(Nc1ccc(N2CCNCC2)cc1)c1ccn2ncc(-c3cccc(Cl)c3)c2n1.O=C(O)C(F)(F)F	range 1
CCOC(=O)C1=C(C)NC2=C(C(=O)CC(c3ccc(OC)c(OC)c3)C2)C1c1ccccc1Cl (centres unmarked) [GNF-Pf-5660, reference compound]	range 1
Clc1ccc2c(N3CCN(CCCN4CCN(c5ccnc6cc(Cl)ccc56)CC4)CC3)ccnc2c1 [Piperaquine, reference compound]	range 2
CN(C(=O)c1cn2c(-c3ccc(C(F)(F)F)cc3)cnc2cn1)c1ccc(C#N)cc1 [KAI407, reference compound]	range 1
CC(C)(C)OC(=O)N1CCN(c2ccccc2NC(=O)c2cccc(C(F)(F)F)c2Oc2ccc(F)cc2)CC1	range 1
CNc1nc(NCCCN(C)C)c2sc(-c3cccc(C(F)(F)F)c3)cc2n1	range 2
CC(C)(C)NCc1cc(Nc2ccnc3cc(Cl)ccc23)c2c(c1O)CCCC2 [Naphtoquine, Naphthoquine, reference compound]	range 3
CCCCN(CCCC)CC(O)c1cc(Cl)cc2c1-c1ccc(Cl)cc1/C2=C/c1ccc(Cl)cc1 (centres unmarked) [Lumefantrine, reference compound]	range 2
CN(C)c1ccc2nc3ccc(=[N+](C)C)cc-3sc2c1 [Methylene blue, reference compound]	range 2
COc1ccc(C2c3ccc4ccccc4c3Oc3ncn(CCCN(C)C)c(=N)c32)cc1 (centres unmarked)	range 1
